# MEASURED_ON: recombinant hMAO-B (Homo sapiens, UniProt P27338)
# Sequence (P27338 whole entry): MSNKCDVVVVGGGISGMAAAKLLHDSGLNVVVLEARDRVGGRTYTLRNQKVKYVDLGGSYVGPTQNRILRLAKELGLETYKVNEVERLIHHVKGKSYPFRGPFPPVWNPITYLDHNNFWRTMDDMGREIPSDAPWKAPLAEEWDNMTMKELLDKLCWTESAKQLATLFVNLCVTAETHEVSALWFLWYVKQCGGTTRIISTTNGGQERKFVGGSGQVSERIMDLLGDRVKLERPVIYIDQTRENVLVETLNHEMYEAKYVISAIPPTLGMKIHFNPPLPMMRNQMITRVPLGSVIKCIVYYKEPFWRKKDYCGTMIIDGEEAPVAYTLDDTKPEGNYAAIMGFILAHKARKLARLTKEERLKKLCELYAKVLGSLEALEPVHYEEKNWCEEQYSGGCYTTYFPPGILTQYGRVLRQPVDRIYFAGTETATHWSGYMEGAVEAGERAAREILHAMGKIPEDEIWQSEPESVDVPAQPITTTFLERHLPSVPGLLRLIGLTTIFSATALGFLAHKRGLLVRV
# PROTOCOL_DETAILS: biochemical
# CONDITIONS: mean ± SEM (n = 3); 100 µM highest concentration tested
PROPERTY_LABEL: IC50

- COMPOUND: "CN(Cc1ccccc1)Cc1ccc(NC(=O)c2cc(=O)c3c(O)cc(O)cc3o2)cc1 [Compound 4]"
  ENDPOINT_VALUE: "> 100 µM"
- COMPOUND: "CN(Cc1ccccc1)Cc1ccc(NC(=O)c2cc(=O)c3cc(O)ccc3[nH]2)cc1 [Compound 9]"
  ENDPOINT_VALUE: "> 100 µM"
- COMPOUND: "COc1cc2[nH]c(C(=O)Nc3ccc(CN(C)Cc4ccccc4)cc3)cc(=O)c2cc1OC [Compound 11]"
  ENDPOINT_VALUE: "> 100 µM"
- COMPOUND: "COc1ccc2[nH]c(C(=O)Nc3ccc(CN(C)Cc4ccccc4)cc3)cc(=O)c2c1 [Compound 8]"
  ENDPOINT_VALUE: "> 100 µM"
- COMPOUND: "COc1cccc2[nH]c(C(=O)Nc3ccc(CN(C)Cc4ccccc4)cc3)cc(=O)c12 [Compound 7]"
  ENDPOINT_VALUE: "15.2 µM"
